EXPERIMENT_SUMMARY: Compound was evaluated for the inhibition of RANTES-induced migration of human monocytes
Type: functional
MEASURE_NAME: IC50 (nM)
Entry rule: numbers only, all in nM.

Reference set, count: 2
query: For the compound shown here, CC(C)CCCC(C)[C@H]1CC[C@H]2[C@@H]3CCC4C[C@@H](CCC=C(c5cc(Cl)c(O)c(C(=O)O)c5)c5cc(Cl)c(O)c(C(=O)O)c5)CC[C@]4(C)[C@H]3CC[C@]12C (stereo partly drawn) , give the reported IC50.
result: 760

query: Same for CC(C)CCCC(C)[C@H]1CC[C@H]2[C@@H]3CCC4C[C@@H](CCC=C(c5cc(Cl)c(OCc6ccccc6C(=O)O)c(C(=O)O)c5)c5cc(Cl)c(OCc6ccccc6C(=O)O)c(C(=O)O)c5)CC[C@]4(C)[C@H]3CC[C@]12C (stereo partly drawn)
result: 3900

Below: the item to evaluate.
query: For the compound shown here, CC(C)CCCC(C)[C@H]1CC[C@H]2[C@@H]3CCC4C[C@@H](CCC=C(c5cc(Cl)c(OCc6ccc(-c7cccc(C(=O)O)c7)cc6)c(C(=O)O)c5)c5cc(Cl)c(OCc6ccc(-c7cccc(C(=O)O)c7)cc6)c(C(=O)O)c5)CC[C@]4(C)[C@H]3CC[C@]12C (stereo partly drawn) , give the reported IC50.
result: 3000
